B1: library; a variant is named by its letters at N, in order (parent)
chain: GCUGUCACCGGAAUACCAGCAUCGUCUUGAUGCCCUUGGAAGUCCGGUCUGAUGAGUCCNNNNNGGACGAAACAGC

# Variants of: B1
# procedure-details: normalized RNA/DNA level without ligand (relative to sTRSVctl = 100) (log10 (% of sTRSVctl)); higher = less ribozyme self-cleavage, higher mRNA level
# assay-conditions: HEK293T, reporter: mCherry (pCS4076), ligand present: no
property-label: normalized RNA/DNA level without ligand (log10)

changes	test-result
AGAAC	1.78
ACAUC	1.94
GAAUU	1.75
GCAUU	1.79
CUCAU	1.85
ACCUG	1.89
